# Tested on: Escherichia coli
# Measurement Notes: Antibacterial activity against gram-negative Escherichia coli EC155 harboring tet(A) by CLSI method
# Format: functional
Reported Metric: MIC (µg/mL)
Write it as a number; the unit µg/mL goes unstated.

- CN(C)[C@@H]1C(O)=C(C(N)=O)C(=O)[C@@]2(O)C(O)=C3C(=O)c4c(O)cc([C@@H]5CCCN5CC5CC5)c(C(F)(F)F)c4C[C@H]3C[C@@H]12: 2

Please look at the following molecule next.
Would you mind telling me what MIC value was observed for CC1CCNC1c1cc(O)c2c(c1C(F)(F)F)C[C@H]1C[C@H]3[C@H](N(C)C)C(O)=C(C(N)=O)C(=O)[C@@]3(O)C(O)=C1C2=O (stereo partly drawn) ?
2

----------
# System: Burkholderia cenocepacia
# Measurement Notes: Antibacterial activity against gram-negative Burkholderia cenocepacia BC240 by CLSI method
# Format: functional
Reported Metric: MIC

In the examples that follow, each entry is paired with its recorded MIC.
• CC(C)CN1CCC[C@H]1c1cc(O)c2c(c1C(F)(F)F)C[C@H]1C[C@H]3[C@H](N(C)C)C(O)=C(C(N)=O)C(=O)[C@@]3(O)C(O)=C1C2=O = > 32 µg/mL
• CN(C)[C@@H]1C(O)=C(C(N)=O)C(=O)[C@@]2(O)C(O)=C3C(=O)c4c(O)cc(C5CCCN5)c(OC(F)(F)F)c4C[C@H]3C[C@@H]12 (stereo partly specified) = 8 µg/mL
• CC(C)N1CCC[C@H]1c1cc(O)c2c(c1C(F)(F)F)C[C@H]1C[C@H]3[C@H](N(C)C)C(O)=C(C(N)=O)C(=O)[C@@]3(O)C(O)=C1C2=O = 16 µg/mL

What measured MIC is associated with CCCN1CCC[C@H]1c1cc(O)c2c(c1C(F)(F)F)C[C@H]1C[C@H]3[C@H](N(C)C)C(O)=C(C(N)=O)C(=O)[C@@]3(O)C(O)=C1C2=O on Burkholderia cenocepacia?
16 µg/mL

What measured MIC is associated with CN(C)[C@@H]1C(O)=C(C(N)=O)C(=O)[C@@]2(O)C(O)=C3C(=O)c4c(O)cc([C@@H]5CCCN5)cc4C[C@H]3C[C@@H]12 on Burkholderia cenocepacia?
> 32 µg/mL

What measured MIC is associated with CC1CCC(c2cc(O)c3c(c2C(F)(F)F)C[C@H]2C[C@H]4[C@H](N(C)C)C(O)=C(C(N)=O)C(=O)[C@@]4(O)C(O)=C2C3=O)N1C (stereo partly specified) on Burkholderia cenocepacia?
8 µg/mL

What measured MIC is associated with CN(C)[C@@H]1C(O)=C(C(N)=O)C(=O)[C@@]2(O)C(O)=C3C(=O)c4c(O)cc([C@@H]5CCCN5C)c(C(F)(F)F)c4C[C@H]3C[C@@H]12 on Burkholderia cenocepacia?
4 µg/mL

What measured MIC is associated with CC1CCNC1c1cc(O)c2c(c1C(F)(F)F)C[C@H]1C[C@H]3[C@H](N(C)C)C(O)=C(C(N)=O)C(=O)[C@@]3(O)C(O)=C1C2=O (stereo partly specified) on Burkholderia cenocepacia?
4 µg/mL

What measured MIC is associated with CN(C)[C@@H]1C(O)=C(C(N)=O)C(=O)[C@@]2(O)C(O)=C3C(=O)c4c(O)cc([C@@H]5CCCN5)c(F)c4C[C@H]3C[C@@H]12 on Burkholderia cenocepacia?
> 32 µg/mL

What measured MIC is associated with CN(C)[C@@H]1C(O)=C(C(N)=O)C(=O)[C@@]2(O)C(O)=C3C(=O)c4c(O)cc(-c5cccnc5)c(Cl)c4C[C@H]3C[C@@H]12 on Burkholderia cenocepacia?
8 µg/mL

What measured MIC is associated with COc1c(C2CCCN2)cc(O)c2c1C[C@H]1C[C@H]3[C@H](N(C)C)C(O)=C(C(N)=O)C(=O)[C@@]3(O)C(O)=C1C2=O (stereo partly specified) on Burkholderia cenocepacia?
> 32 µg/mL

----------
# System: Proteus mirabilis
# Measurement Notes: Antibacterial activity against gram-negative Proteus mirabilis PM122 by CLSI method
# Assay type: functional
Reported Metric: MIC (µg/mL)
Write it as a number; the unit µg/mL goes unstated.

In the examples that follow, each entry is paired with its recorded MIC.
• CN(C)[C@@H]1C(O)=C(C(N)=O)C(=O)[C@@]2(O)C(O)=C3C(=O)c4c(O)cc(-c5ccncc5)c(Cl)c4C[C@H]3C[C@@H]12 = 16
• CN1CCCC1c1cc(O)c2c(c1Cl)C[C@H]1C[C@H]3[C@H](N(C)C)C(O)=C(C(N)=O)C(=O)[C@@]3(O)C(O)=C1C2=O (stereo not given in full) = 0.5
• CN1CCCCCC1c1cc(O)c2c(c1Cl)C[C@H]1C[C@H]3[C@H](N(C)C)C(O)=C(C(N)=O)C(=O)[C@@]3(O)C(O)=C1C2=O (stereo not given in full) = 4
• CN1CCCCC1c1cc(O)c2c(c1Cl)C[C@H]1C[C@H]3[C@H](N(C)C)C(O)=C(C(N)=O)C(=O)[C@@]3(O)C(O)=C1C2=O (stereo not given in full) = 1

Please look at the following molecule next.
What measured MIC is associated with CN(C)[C@@H]1C(O)=C(C(N)=O)C(=O)[C@@]2(O)C(O)=C3C(=O)c4c(O)cc(-c5cccnc5)c(Cl)c4C[C@H]3C[C@@H]12 on Proteus mirabilis?
16

----------
# Test system: Stenotrophomonas maltophilia
# Measurement Notes: Antibacterial activity against gram-negative Stenotrophomonas maltophilia SM256 by CLSI method
# Format: functional
The molecules listed here are annotated with their MIC.

- CN(C)c1c(C2CCCN2)cc(O)c2c1C[C@H]1C[C@H]3[C@H](N(C)C)C(O)=C(C(N)=O)C(=O)[C@@]3(O)C(O)=C1C2=O (some centres not stated): 32 mg/L

Please look at the following molecule next.
Would you mind telling me what MIC value was observed for CN(C)[C@@H]1C(O)=C(C(N)=O)C(=O)[C@@]2(O)C(O)=C3C(=O)c4c(O)cc([C@@H]5CCCN5)cc4C[C@H]3C[C@@H]12 ?
32 mg/L

----------
# Test system: Enterococcus faecalis
# Measurement Notes: Antibacterial activity against gram-positive Enterococcus faecalis EFs327 harboring tet(M) by CLSI method
# Assay type: functional
The compounds listed here are annotated with their MIC.
Write it as a number; the unit µg/mL goes unstated.

In the examples that follow, each entry is paired with its recorded MIC.
• CC(C)CN1CCC[C@H]1c1cc(O)c2c(c1C(F)(F)F)C[C@H]1C[C@H]3[C@H](N(C)C)C(O)=C(C(N)=O)C(=O)[C@@]3(O)C(O)=C1C2=O = 1
• CC1CCC(c2cc(O)c3c(c2C(F)(F)F)C[C@H]2C[C@H]4[C@H](N(C)C)C(O)=C(C(N)=O)C(=O)[C@@]4(O)C(O)=C2C3=O)N1C (some centres undefined) = 2

Please look at the following compound next.
Would you mind telling me what MIC value was observed for CN(C)[C@@H]1C(O)=C(C(N)=O)C(=O)[C@@]2(O)C(O)=C3C(=O)c4c(O)cc([C@@H]5CCCN5)c(F)c4C[C@H]3C[C@@H]12 ?
32

----------
The compounds listed here are annotated with their MIC.
# System: Streptococcus pneumoniae
# Measurement Notes: Antibacterial activity against gram-positive Streptococcus pneumoniae SP193 by CLSI method
# Assay type: functional

In the examples that follow, each entry is paired with its recorded MIC.
- CN(C)[C@@H]1C(O)=C(C(N)=O)C(=O)[C@@]2(O)C(O)=C3C(=O)c4c(O)cc(-c5ccncc5)c(Cl)c4C[C@H]3C[C@@H]12: 0.25 µg/mL
- CN1CCCCC1c1cc(O)c2c(c1Cl)C[C@H]1C[C@H]3[C@H](N(C)C)C(O)=C(C(N)=O)C(=O)[C@@]3(O)C(O)=C1C2=O (stereo partly specified): ≤ 0.0156 µg/mL
- CN1CCCC1c1cc(O)c2c(c1Cl)C[C@H]1C[C@H]3[C@H](N(C)C)C(O)=C(C(N)=O)C(=O)[C@@]3(O)C(O)=C1C2=O (stereo partly specified): ≤ 0.0156 µg/mL

Would you mind telling me what MIC value was observed for CN1CCCCCC1c1cc(O)c2c(c1Cl)C[C@H]1C[C@H]3[C@H](N(C)C)C(O)=C(C(N)=O)C(=O)[C@@]3(O)C(O)=C1C2=O (stereo partly specified) ?
≤ 0.0156 µg/mL

Would you mind telling me what MIC value was observed for CN(C)[C@@H]1C(O)=C(C(N)=O)C(=O)[C@@]2(O)C(O)=C3C(=O)c4c(O)cccc4[C@@](C)(O)[C@H]3C[C@@H]12 ?
0.125 µg/mL

Would you mind telling me what MIC value was observed for CN(C)[C@@H]1C(O)=C(C(N)=O)C(=O)[C@@]2(O)C(O)=C3C(=O)c4c(O)cc(-c5cccnc5)c(Cl)c4C[C@H]3C[C@@H]12 ?
0.25 µg/mL

----------
The compounds listed here are annotated with their MIC.
# Tested on: Acinetobacter baumannii
# Measurement Notes: Antibacterial activity against gram-negative Acinetobacter baumannii AB250 by CLSI method
# Type: functional

In the examples that follow, each entry is paired with its recorded MIC.
- CN(C)c1c(C2CCCN2)cc(O)c2c1C[C@H]1C[C@H]3[C@H](N(C)C)C(O)=C(C(N)=O)C(=O)[C@@]3(O)C(O)=C1C2=O (stereo partly drawn): > 32 µg/mL
- CN(C)[C@@H]1C(O)=C(C(N)=O)C(=O)[C@@]2(O)C(O)=C3C(=O)c4c(O)cc(-c5cccnc5)c(Cl)c4C[C@H]3C[C@@H]12: > 32 µg/mL

Would you mind telling me what MIC value was observed for CN(C)[C@@H]1C(O)=C(C(N)=O)C(=O)[C@@]2(O)C(O)=C3C(=O)c4c(O)cccc4[C@@](C)(O)[C@H]3C[C@@H]12 ?
> 32 µg/mL
